# credit: patent US20240043504A1

Catalogue of pKd readings, one per entry.
- System Under Test: SARS-COV-2 RBD extracellular domain expressed with a C-terminal mouse IgG2a (SARS-CoV-2)
- Procedure Details: SPR Biacore, mAb captured via anti-hFc, 25 C
Remember the convention: pKd equals -log10 of concentration in molar.

mAb10939 (antibody, V domains shown) VH: EVQLVESGGGLVQPGGSLRLSCAASGLTVSSNYMNWVRQVPGKGLEWVSVIYSGGSKFYVDSVKGRFTISRHNSKNTLYLQMNSLRPEDTAVYYCTRDAQYYGMDVWGQGTTVTVSS VL: DIQMTQSPSSLSASVGDRVTITCRASQSISTYLHWYQQKPGEAPKLLIYAASSLQSGVPSRFSGSGSGTDFTLTISSLQPEDFATYYCQQSYSTPPEIFGQGTKLEIKR; 9.92

Shifting focus to the binder that follows.
// query Which pKd value is on record for mAb10921 (antibody, V domains shown) VH: EVQLVESGGGLVQPGGSLRLSCAASGITVSSNYMSWVRQAPGKGLEWVSVIYSGGSTFYADSVKGRFTISRHNSKNTLYLQMNSLRAEDTAVYYCARERNFDAFDIWGQGTMVTVSS VL: DIQMTQSPSSVSASVGDRVTITCRASQGISSWLAWYQQKPGKAPKLLIYAASSLQSGVPSRFSGSGSGTDFTLTISSLQPEDFATYYCQQANSFPLFTFGPGTKVDIKR ?
// result 9.90
